- measured-on: trypsin (Bos taurus, UniProt P00760)
- Sequence (P00760 24-246): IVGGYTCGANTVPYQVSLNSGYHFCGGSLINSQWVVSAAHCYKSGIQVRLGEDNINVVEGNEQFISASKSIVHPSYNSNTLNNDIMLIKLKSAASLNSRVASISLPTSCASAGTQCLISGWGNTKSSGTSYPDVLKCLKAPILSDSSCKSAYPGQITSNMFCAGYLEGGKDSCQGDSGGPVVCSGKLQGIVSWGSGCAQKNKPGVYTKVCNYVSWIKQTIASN
- assay-text: Ki values for trypsin, determined analogously
- Format: biochemical
- run-conditions: Table I, formula (II) compounds
pKi: −log10 of the molar value.
measured-quantity: pKi

>>> observed_measurement("H-d-N(CH2—CONH-PEG2000-OMe)Cha-Pro-Arg-CH2—Cl×2 trifluoroacetic acid")
8.43

* * *

# pKi per record follows
- measured-on: human α-thrombin (Homo sapiens, UniProt P00734)
- Construct: 50 μl human α-thrombin (Kordia); purchased Kordia
- assay-text: Determination of Ki for thrombin inhibition (chromogenic or fluorogenic substrate, Dixon)
- Type: biochemical
- run-conditions: Table 2, formula (III) compounds
pKi: −log10 of the molar value.
measured-quantity: pKi

>>> observed_measurement("COC(=O)C[C@H](NS(=O)(=O)c1ccc(OC)cc1)C(=O)N1CCC[C@H]1C(=O)NCc1ccc(C(=N)N)cc1")
9.17
>>> observed_measurement("COc1ccc(S(=O)(=O)N[C@@H](CC(=O)NCc2cccc(CN)c2)C(=O)N2CCC[C@H]2C(=O)NCc2ccc(C(=N)N)cc2)cc1")
10.10
>>> observed_measurement("N=C(N)c1ccc(CNC(=O)[C@@H]2CCCN2C(=O)[C@H](CN)NS(=O)(=O)c2ccc3ccccc3c2)cc1")
8.62
>>> observed_measurement("COc1ccc(S(=O)(=O)N[C@@H](CO)C(=O)N2CCC[C@H]2C(=O)NCc2ccc(C(=N)N)cc2)cc1")
9.59
>>> observed_measurement("COc1ccc(S(=O)(=O)NC(CC(N)=O)C(=O)N2CCCC2C(=O)NCc2ccc(C(=N)N)cc2)cc1 (centres unmarked)")
9.44
>>> observed_measurement("N=C(N)c1ccc(CNC(=O)C2CCCN2C(=O)C(CCC(N)=O)NS(=O)(=O)c2ccc3ccccc3c2)cc1 (centres unmarked)")
8.42
>>> observed_measurement("COc1ccc(S(=O)(=O)N[C@@H](CC(=O)NCc2ccc(C#N)cc2)C(=O)N2CCC[C@H]2C(=O)NCc2ccc(C(=N)N)cc2)cc1")
10.35
>>> observed_measurement("N=C(N)c1ccc(CNC(=O)C2CCCN2C(=O)C(CO)NS(=O)(=O)c2ccc3ccccc3c2)cc1 (centres unmarked)")
8.60
>>> observed_measurement("COc1ccc(S(=O)(=O)N[C@@H](CC(=O)O)C(=O)N2CCC[C@H]2C(=O)NCc2ccc(C(=N)N)cc2)cc1")
8.80
>>> observed_measurement("COc1ccc(S(=O)(=O)N[C@@H](CC(=O)NCc2ccc(CN)cc2)C(=O)N2CCC[C@H]2C(=O)NCc2ccc(C(=N)N)cc2)cc1")
10.21
>>> observed_measurement("N=C(N)c1ccc(CNC(=O)C2CCCN2C(=O)C(CC(=O)O)NS(=O)(=O)c2ccc3ccccc3c2)cc1 (centres unmarked)")
7.62

* * *

- measured-on: human α-thrombin (Homo sapiens)
- Construct: 50 μl human α-thrombin (Kordia); purchased Kordia
- assay-text: Determination of Ki for thrombin inhibition (chromogenic or fluorogenic substrate, Dixon)
- Type: biochemical
- run-conditions: Example 8, selectivity quotient
measured-quantity: KiTrypsin/KiThrombin

>>> observed_measurement("N=C(N)c1ccc(CNC(=O)C2CCCN2C(=O)C(CC2CCCCC2)NCC(=O)O)cc1 (stereo not shown) [reference compound]")
12
>>> observed_measurement("COc1ccc(S(=O)(=O)NC(CCCCN)C(=O)N2CCCC2C(=O)NCc2ccc(C(=N)N)cc2)cc1 (stereo not shown)")
112
>>> observed_measurement("N=C(N)N1CCC(CNC(=O)C2CCCN2C(=O)C(CC2CCCCC2)NCC(=O)O)CC1 (stereo not shown) [reference compound]")
173
>>> observed_measurement("COc1ccc(S(=O)(=O)NC(CC(=O)O)C(=O)N2CCCC2C(=O)NCc2ccc(C(=N)N)cc2)cc1 (stereo not shown)")
48
